Assay: protein stability index of a GFP-peptide fusion (yeast GPS) (PSI 1-4); higher = more stable; sorted into four equal gates, so the index is relative within each strain
Conditions: san1∆
endpoint_label: protein stability index
Please reply with the value in numeric form only.

See these solved cases before continuing.
>>> measured_number("NKIDQSLQYIERQQDEL [YJL041W/NSP1]")
3.25
>>> measured_number("IVQIDATPFRQWFEAHY [RPS8A]")
2.63
>>> measured_number("GKRHIFDVNTLCLMTWK [CDC53]")
1.44
>>> measured_number("SKNAERKWAARAASAKI [RPS8A]")
3.17
>>> measured_number("DDSRNPDCKIKIAHGTT [PRE2]")
2.72

Asked: State its protein stability index for this sequence: MKYVRETSGVTTALLKD [MED8]
Given back: 3

Asked: State its protein stability index for this sequence: QSTQTDLEKTERIVVSY [SMC2]
Given back: 2.56

Asked: State its protein stability index for this sequence: NNNETSKPAFSFGAKSD [YJL041W/NSP1]
Given back: 3.15

====

Assay: protein stability index of a GFP-peptide fusion (yeast GPS) (PSI 1-4); higher = more stable; sorted into four equal gates, so the index is relative within each strain
Details: doa10∆
endpoint_label: protein stability index
Please reply with the value in numeric form only.

See these solved cases before continuing.
>>> measured_number("PEYEKAMQYVCGDSIIC [SMC1]")
1.7
>>> measured_number("SMDVDDKNSGVKSEVDV [ITC1]")
2.52
>>> measured_number("KIEGVATPQEAQFYLGK [RPL33B]")
2.87
>>> measured_number("NLPILKNHFRKHWQERV [RPL13A]")
2.33
>>> measured_number("RKVVFPFQLDVADMLTP [UBP6]")
2.29
>>> measured_number("LSIELEGGKNQAELLQL [YJL039C/NUP192]")
2.85
>>> measured_number("PKNLLKKFIEISDVKIQ [PRP8]")
1.76

Asked: State its protein stability index for this sequence: ESDTGLAPSHLWDIMGD [RPT1]
Given back: 2.91

====

Test: protein stability index of a GFP-peptide fusion (yeast GPS) (PSI 1-4); higher = more stable; sorted into four equal gates, so the index is relative within each strain
Settings: doa10∆
# if value of protein stability index reaches 3, tag true (1); if it stays below, tag false (0)

>>> answer_label("ITRLCQTLGLESFTEEL [MED1]")
"false (0)"
>>> answer_label("EDILYYSTCPSETDLND [SRB8]")
"false (0)"
>>> answer_label("VRLRSNVIKTGIRIISL [RPN3]")
"false (0)"
>>> answer_label("WGMEPLEDYVPHQSPDA [RPB2]")
"false (0)"
>>> answer_label("DISAMQPVNPKPFLKGL [SMX3]")
"true (1)"

Asked: Dear colleague, could you confirm whether KLREPVARFLHFNGIRR [ITC1] has protein stability index at or above 3?
Given back: false (0)

Asked: Dear colleague, could you confirm whether GSCTRQLAGKSGEDTNV [YOR098C/NUP1] has protein stability index at or above 3?
Given back: true (1)

Asked: Dear colleague, could you confirm whether PVSLLNSQLVGKPHFSL [PCI8] has protein stability index at or above 3?
Given back: false (0)

Asked: Dear colleague, could you confirm whether KSSLSLRDHALSLTAFT [ITC1] has protein stability index at or above 3?
Given back: false (0)

Asked: Dear colleague, could you confirm whether KENFILDSLMKTTRLLL [YJL039C/NUP192] has protein stability index at or above 3?
Given back: false (0)

Asked: Dear colleague, could you confirm whether GNDNLIKAPTVAADGKL [YLR335W/NUP2] has protein stability index at or above 3?
Given back: false (0)

Asked: Dear colleague, could you confirm whether HSSSVFKGTDFVHSVKK [SRB4] has protein stability index at or above 3?
Given back: false (0)

Asked: Dear colleague, could you confirm whether LATNSLVEEFMLLANIS [DIS3] has protein stability index at or above 3?
Given back: false (0)

Asked: Dear colleague, could you confirm whether AGTQSSKFSKQQAKGAF [RPL24A] has protein stability index at or above 3?
Given back: true (1)

Asked: Dear colleague, could you confirm whether KQINHQGEEEELIALNL [RPB4] has protein stability index at or above 3?
Given back: true (1)

Asked: Dear colleague, could you confirm whether DYYYEDAGSNQYYVTQH [SWI1] has protein stability index at or above 3?
Given back: true (1)

Asked: Dear colleague, could you confirm whether VPPMKLAYSKIVNGQTF [YMR129W/POM152] has protein stability index at or above 3?
Given back: false (0)

Asked: Dear colleague, could you confirm whether YFSVTTARRNVSGDAAA [SWI3] has protein stability index at or above 3?
Given back: false (0)

Asked: Dear colleague, could you confirm whether LLFINSSKLVDVYTLPS [YML103C/NUP188] has protein stability index at or above 3?
Given back: false (0)

Asked: Dear colleague, could you confirm whether KKENLTRDETVSLIKKY [YML103C/NUP188] has protein stability index at or above 3?
Given back: false (0)

Asked: Dear colleague, could you confirm whether IPHFIDNNSSLNVSNTK [PRP8] has protein stability index at or above 3?
Given back: false (0)

====

Test: protein stability index of a GFP-peptide fusion (yeast GPS) (PSI 1-4); higher = more stable; sorted into four equal gates, so the index is relative within each strain
Conditions: doa10∆
endpoint_label: protein stability index
Please reply with the value in numeric form only.

See these solved cases before continuing.
>>> measured_number("KFNNTQRESQIGAAELN [SNF12]")
3.01
>>> measured_number("SGVMDKSVLGDGKKHSV [RPO31]")
3.73
>>> measured_number("VEYLDVNEENDSYIALY [RET1]")
2.97
>>> measured_number("SLYTSREPRVVSALQML [PUP1]")
2.66
>>> measured_number("PILVTLVSDSEIIDLNL [POP6]")
2.29
>>> measured_number("ILNHIGQLTGIYRYKYK [PRP8]")
1.39
>>> measured_number("MDFFNLNNNNNNNNTTT [SWI1]")
2.97
>>> measured_number("AGYTTHLMKRIQKGPVR [RPS17A]")
2.2
>>> measured_number("LADYIVEVLLVNYNSDM [NUT1]")
1.28
>>> measured_number("WVNMLLISSSGPIKTPV [FAS2]")
1.87

Asked: State its protein stability index for this sequence: KYFTELSHYIRQCFQDN [MED1]
Given back: 2.38

Asked: State its protein stability index for this sequence: TLSEPVQGELKPTVILK [FAS1]
Given back: 2.23

Asked: State its protein stability index for this sequence: ISLLCKNFKGIEEIEYN [PCI8]
Given back: 2.94

Asked: State its protein stability index for this sequence: IEWAEHHRDSNFPDEDD [SKP1]
Given back: 3.1

Asked: State its protein stability index for this sequence: KAIPTFSFGKPFFSSNT [YIL149C/MLP2]
Given back: 3.07

====

Test: protein stability index of a GFP-peptide fusion (yeast GPS) (PSI 1-4); higher = more stable; sorted into four equal gates, so the index is relative within each strain
Settings: doa10∆
endpoint_label: protein stability index
Please reply with the value in numeric form only.

See these solved cases before continuing.
>>> measured_number("DITSDQLLQRLNDMNTE [SMC3]")
3.46
>>> measured_number("ILYYDVLFITPDIVGHE [BRR2]")
2.29
>>> measured_number("YDNIDIQRGRILPTDGS [RPB7]")
3.05
>>> measured_number("ATANATANATANVNASA [DSN1]")
2.78
>>> measured_number("KIYKLENGERKLYDAKR [YMR129W/POM152]")
3.13

Shifting focus to the sequence that follows.
Asked: State its protein stability index for this sequence: QLDLTGIFLHGKIPTLK [PRP8]
Given back: 2.39

====

protein stability index for assorted sequences
Assay: protein stability index of a GFP-peptide fusion (yeast GPS) (PSI 1-4); higher = more stable; sorted into four equal gates, so the index is relative within each strain
Details: san1∆
Please reply with the value in numeric form only.

See these solved cases before continuing.
>>> measured_number("EAINGFKDETISKKIIG [SIR3]")
2.95
>>> measured_number("SPSTSANVPSTATTGKR [RPN4]")
2.62
>>> measured_number("QTYINQELGFCELLKLT [SSN2]")
2.39
>>> measured_number("ALDTVTNVLNFIKLQKI [FAS1]")
2.14
>>> measured_number("FLSPYISTHLKTICNLL [IRR1]")
1.69
>>> measured_number("AIIGLKSGTSHDAIFSI [SNF12]")
2.5

Asked: State its protein stability index for this sequence: TAVGKAAVVKTSSRQTV [RPT5]
Given back: 3.28

Asked: State its protein stability index for this sequence: QAQAQAHAQHQPSQQPQ [GAL11]
Given back: 2.97

Asked: State its protein stability index for this sequence: VVTMSVKSVNDPSQNRL [RPC37]
Given back: 2.42

Reference for the values: the supplement of paper PMC9732359
